Experiment: PBS (pH 7.4) solubility
Type: physicochemical
PBS (pH 7.4) Solubility μM Mean ± SE: recorded values

compound: COc1cc2c3c(c4cc(OC)c(OC)cc4c2cc1OC)CN1CCC[C@H]1C3 [(S)-Tylophorine]
unit-label: μM
PBS (pH 7.4) Solubility μM Mean ± SE: 2
//
compound: COc1ccc2c3c(c4cc(OC)c(OC)cc4c2c1)C[C@H]1CCC[N+]1(Cc1c([N+](=O)[O-])ncn1C)C3.[Br-] (some centres unmarked)
unit-label: μM
PBS (pH 7.4) Solubility μM Mean ± SE: 154
//
compound: COc1ccc2c3c(c4cc(OC)c(OC)cc4c2c1)C[C@H]1CCCN1C3 [(R)-Antofine, (R)-antofine]
unit-label: μM
PBS (pH 7.4) Solubility μM Mean ± SE: 27
//
compound: COc1cc2c3c(c4cc(OC)c(OC)cc4c2cc1OC)C[N+]1(Cc2c([N+](=O)[O-])ncn2C)CCC[C@H]1C3.[Br-] (some centres unmarked)
unit-label: μM
PBS (pH 7.4) Solubility μM Mean ± SE: 162
//
compound: Cc1nccn1CC1CCc2c(c3ccccc3n2C)C1=O (centres unmarked)
unit-label: μM
PBS (pH 7.4) Solubility μM Mean ± SE: 96

====

Tested on: HCT116
Assay: Cytotoxicity under normoxia and hypoxia (anaerobic chamber), HCT116
Type: cell-based, human
Settings: Homo sapiens, HCT-116; HTC 116, hypoxia, 4 h exposure; read-out: IC50 (Hypoxia)
Procedure: The ability of the designed prodrugs to liberate the active alkaloids in hypoxic tumors was evaluated by testing them under hypoxic conditions using an anaerobic chamber. The three prodrugs 5a-c and their parent alkaloids as well as the reference compounds PR-104A, the parent alcohol form of the phosphate pre-prodrug PR-104, and evofosfamide were tested using the HCT116 and H460 cell lines under both normoxic and hypoxic conditions (Table 5). […]
pIC50: −log10 of the molar value.
readout-label: pIC50

compound: Cn1c(COP(=O)(NCCBr)NCCBr)cnc1[N+](=O)[O-] [Evofosfamide, evofosfamide]
recorded-value: 7.70
//
compound: COc1cc2c3c(c4cc(OC)c(OC)cc4c2cc1OC)C[N+]1(Cc2c([N+](=O)[O-])ncn2C)CCC[C@@H]1C3.[Br-] (stereo partly shown)
recorded-value: 5.52
//
compound: COc1cc2c3c(c4cc(OC)c(OC)cc4c2cc1OC)C[N+]1(Cc2c([N+](=O)[O-])ncn2C)CCC[C@H]1C3.[Br-] (stereo partly shown)
recorded-value: 5.83
//
compound: COc1ccc2c3c(c4cc(OC)c(OC)cc4c2c1)C[C@H]1CCC[N+]1(Cc1c([N+](=O)[O-])ncn1C)C3.[Br-] (stereo partly shown)
recorded-value: 6.37

====

System: HCT116
Experiment: Cytotoxicity under normoxia and hypoxia (anaerobic chamber), HCT116
Assay type: cell-based, human
Conditions: HTC 116, normoxia, 4 h exposure; read-out: IC50 (Normoxia)
readout-label: IC50 (nM)

compound: COc1cc2c3c(c4cc(OC)c(OC)cc4c2cc1OC)CN1CCC[C@H]1C3 [(S)-Tylophorine]
readout-label: IC50
unit-label: nM
recorded-value: 35.1
//
compound: CS(=O)(=O)OCCN(CCBr)c1c(C(=O)NCCO)cc([N+](=O)[O-])cc1[N+](=O)[O-] [PR-104A]
readout-label: IC50
unit-label: nM
recorded-value: 16500
//
compound: COc1ccc2c3c(c4cc(OC)c(OC)cc4c2c1)C[C@H]1CCCN1C3 [(R)-Antofine, (R)-antofine]
readout-label: IC50
unit-label: nM
recorded-value: 23.9
//
compound: COc1cc2c3c(c4cc(OC)c(OC)cc4c2cc1OC)CN1CCC[C@@H]1C3 [(R)-Tylophorine]
readout-label: IC50
unit-label: nM
recorded-value: 1710

====

Test system: H460
Experiment: Cytotoxicity under normoxia and hypoxia (anaerobic chamber), H460
Type: cell-based, Human
Conditions: H460
readout-label: HCR (Hypoxia Cytotoxicity Ratio = normoxic IC50/hypoxic IC50)

molecule: CS(=O)(=O)OCCN(CCBr)c1c(C(=O)NCCO)cc([N+](=O)[O-])cc1[N+](=O)[O-] [PR-104A]
recorded-value: 2.5

molecule: Cn1c(COP(=O)(NCCBr)NCCBr)cnc1[N+](=O)[O-] [Evofosfamide, evofosfamide]
recorded-value: 251

molecule: COc1cc2c3c(c4cc(OC)c(OC)cc4c2cc1OC)CN1CCC[C@@H]1C3 [(R)-Tylophorine]
recorded-value: 1.1

molecule: COc1cc2c3c(c4cc(OC)c(OC)cc4c2cc1OC)CN1CCC[C@H]1C3 [(S)-Tylophorine]
recorded-value: 1.1

molecule: COc1ccc2c3c(c4cc(OC)c(OC)cc4c2c1)C[C@H]1CCCN1C3 [(R)-Antofine, (R)-antofine]
recorded-value: 0.6

====

Listed here are compounds together with their documented IC50.
Tested on: HCT116
Assay: Cytotoxicity under normoxia and hypoxia (anaerobic chamber), HCT116
Assay type: cell-based, human
Conditions: Homo sapiens, HCT-116; HTC 116, normoxia, 4 h exposure; read-out: IC50 (Normoxia)

compound: Cn1c(COP(=O)(NCCBr)NCCBr)cnc1[N+](=O)[O-] [Evofosfamide, evofosfamide]
assayed-target: HCT116
unit-label: µM
IC50: 0.0239
--
compound: COc1ccc2c3c(c4cc(OC)c(OC)cc4c2c1)C[C@H]1CCC[N+]1(Cc1c([N+](=O)[O-])ncn1C)C3.[Br-] (stereo partly shown)
assayed-target: HCT116
unit-label: µM
IC50: 16.5
--
compound: COc1cc2c3c(c4cc(OC)c(OC)cc4c2cc1OC)C[N+]1(Cc2c([N+](=O)[O-])ncn2C)CCC[C@H]1C3.[Br-] (stereo partly shown)
assayed-target: HCT116
unit-label: µM
IC50: 4.49
--
compound: COc1cc2c3c(c4cc(OC)c(OC)cc4c2cc1OC)C[N+]1(Cc2c([N+](=O)[O-])ncn2C)CCC[C@@H]1C3.[Br-] (stereo partly shown)
assayed-target: HCT116
unit-label: µM
IC50: 9.05

====

# IC50 values compiled below
Tested on: CHO-K1
Experiment: Cytotoxicity under normoxia (MTT), CHO-K1
Assay type: cell-based, Chinese hamster
Settings: normoxia; read-out: IC50 CHO-K1
Method: The cytotoxicity of the compounds 5a-c and their parent alkaloids was evaluated by the 3-[4,5-dimethylthiazole-2-yl]-2,5-diphenyltetrazolium bromide (MTT) assay against 5 cancerous and 2 non-cancerous cell lines (Table 4). […]

molecule: COc1ccc2c3c(c4cc(OC)c(OC)cc4c2c1)C[C@H]1CCCN1C3 [(R)-Antofine, (R)-antofine]
assayed-target: CHO-K1
IC50: 33 nM

molecule: COc1cc2c3c(c4cc(OC)c(OC)cc4c2cc1OC)CN1CCC[C@H]1C3 [(S)-Tylophorine]
assayed-target: CHO-K1
IC50: 35 nM

====

Tested on: HEK293
Assay: Cytotoxicity under normoxia (MTT), HEK293
Assay type: cell-based, Human
Conditions: Homo sapiens, HEK293, read-out: IC50 HEK293
pIC50: −log10 of the molar value.
readout-label: pIC50

compound: COc1cc2c3c(c4cc(OC)c(OC)cc4c2cc1OC)C[N+]1(Cc2c([N+](=O)[O-])ncn2C)CCC[C@H]1C3.[Br-] (some centres unmarked)
recorded-value: 6.02
--
compound: COc1ccc2c3c(c4cc(OC)c(OC)cc4c2c1)C[C@H]1CCC[N+]1(Cc1c([N+](=O)[O-])ncn1C)C3.[Br-] (some centres unmarked)
recorded-value: 5.29

====

Catalogue of IC50 readings, one per entry.
Tested on: H460
Assay: Cytotoxicity under normoxia and hypoxia (anaerobic chamber), H460
Type: cell-based, Human
Details: H460, normoxia, 4 h exposure; read-out: IC50 (Normoxia)

compound: CS(=O)(=O)OCCN(CCBr)c1c(C(=O)NCCO)cc([N+](=O)[O-])cc1[N+](=O)[O-] [PR-104A]
assayed-target: H460
IC50: 1340 nM

compound: COc1cc2c3c(c4cc(OC)c(OC)cc4c2cc1OC)CN1CCC[C@@H]1C3 [(R)-Tylophorine]
assayed-target: H460
IC50: 175 nM

compound: COc1ccc2c3c(c4cc(OC)c(OC)cc4c2c1)C[C@H]1CCCN1C3 [(R)-Antofine, (R)-antofine]
assayed-target: H460
IC50: 29.2 nM

compound: COc1cc2c3c(c4cc(OC)c(OC)cc4c2cc1OC)CN1CCC[C@H]1C3 [(S)-Tylophorine]
assayed-target: H460
IC50: 108 nM

====

Assay: LogD
Format: physicochemical
The reader will find reported LogD Mean ± SE values listed item by item below.
readout-label: LogD Mean ± SE

compound: COc1ccc2c3c(c4cc(OC)c(OC)cc4c2c1)C[C@H]1CCC[N+]1(Cc1c([N+](=O)[O-])ncn1C)C3.[Br-] (some centres unmarked) [Compound 5a]
recorded-value: 0.69

compound: COc1ccc2c3c(c4cc(OC)c(OC)cc4c2c1)C[C@H]1CCCN1C3 [(R)-Antofine, (R)-antofine]
recorded-value: 3.68

compound: COc1cc2c3c(c4cc(OC)c(OC)cc4c2cc1OC)CN1CCC[C@H]1C3 [(S)-Tylophorine]
recorded-value: 3.14

compound: COC(=O)Nc1nc2ccc(C(=O)c3ccccc3)cc2[nH]1 [Mebendazole]
recorded-value: 3.26

compound: COc1cc2c3c(c4cc(OC)c(OC)cc4c2cc1OC)C[N+]1(Cc2c([N+](=O)[O-])ncn2C)CCC[C@H]1C3.[Br-] (some centres unmarked) [Compound 5b]
recorded-value: 0.38
